- TEST CONDITIONS: in methanol, 293.15 K

COMPOUND	solubility (mole fraction)
CC(=O)[C@@]1(O)CC[C@H]2[C@@H]3CCC4=CC(=O)CC[C@]4(C)[C@H]3C(O)C[C@@]21C (stereo in doubt)	0.0172

====

- TEST CONDITIONS: in water, 283.15 K

COMPOUND	solubility (mole fraction)
CC(=O)[C@@]1(O)CC[C@H]2[C@@H]3CCC4=CC(=O)CC[C@]4(C)[C@H]3C(O)C[C@@]21C (stereo in doubt)	1.73e-05

====

- TEST CONDITIONS: in n-propanol, 288.15 K

COMPOUND	solubility (mole fraction)
CC(=O)[C@@]1(O)CC[C@H]2[C@@H]3CCC4=CC(=O)CC[C@]4(C)[C@H]3C(O)C[C@@]21C (stereo in doubt)	0.0112
